System: KM12 colon
protocol_notes: NCI tumour cell line growth inhibition, 48 h
measurement_label: TGI (µM)

INSERT INTO measurements (molecule, test_system, measurement_label, measurement_units, comparison_symbol, endpoint_value) VALUES
  ('CC(=O)Oc1cccc2c(/C=N/NC(N)=S)ncc(C)c12', 'KM12 colon', 'TGI', 'µM', '=', 15.5),
  ('CC(=O)OCc1cc(CCC(=O)NCCNc2c3ccccc3nc3ccccc23)cc(COC(C)=O)c1O[Si](C)(C)C(C)(C)C', 'KM12 colon', 'TGI', 'µM', '=', 15.4),
  ('O=C(CCCn1ccnc1[N+](=O)[O-])NCCn1cncc1[N+](=O)[O-]', 'KM12 colon', 'TGI', 'µM', '>', 100),
  ('O=C(Nc1ccc(OS(=O)(=O)c2ccccc2)cc1)C12CC3CC(CC(C3)C1)C2', 'KM12 colon', 'TGI', 'µM', '>', 100);

----------
Test system: A498 renal
protocol_notes: NCI tumour cell line growth inhibition, 48 h; in the data active = GI50 below about 0.43 µM; inactive = the rest
Outcomes: active, inactive

INSERT INTO assay_data (molecule, label) VALUES
  ('CC(=O)O.CC(=O)O.CC(=O)O.CC(=O)O.CC(=O)O.CC(=O)O.O.[Ti].[Ti]', 'inactive'),
  ('C#Cc1cccc(Nc2ncnc3cc(OC)c(OCCCCCCC(=O)NO)cc23)c1', 'active'),
  ('Clc1coc2nc3ccccc3c(Nc3ccc4c(c3)OCO4)c12', 'inactive');

----------
System: SF-295 CNS
protocol_notes: NCI tumour cell line growth inhibition, 48 h; in the data active = GI50 below about 0.43 µM; inactive = the rest
Outcomes: active, inactive

INSERT INTO results (compound, test_system, label) VALUES
  ('O=[N+]([O-])c1ccc(C=C2C(Cl)=C(Cl)C(Cl)=C2Cl)cc1', 'SF-295 CNS', 'inactive'),
  ('Cc1ccc(Cl)cc1Nc1nc(C(F)(F)F)ccc1C(=O)N1CCN(c2ccc(F)cc2)CC1', 'SF-295 CNS', 'inactive'),
  ('CC1OC2CC(=O)OC2C2=C1C(=O)c1c(O)cccc1C2=O (stereo not given)', 'SF-295 CNS', 'inactive'),
  ('CCC[CH2][Sn]([CH2]CCC)([CH2]CCC)[O]C(=O)CC', 'SF-295 CNS', 'active'),
  ('CC(=O)O.CC(=O)O.CC(=O)O.CC(=O)O.CC(=O)O.CC(=O)O.O.[Ti].[Ti]', 'SF-295 CNS', 'inactive');

----------
Tested on: OVCAR-5 ovarian
protocol_notes: NCI tumour cell line growth inhibition, 48 h
measurement_label: TGI

INSERT INTO results (molecule, endpoint_value) VALUES
  ('Cc1ccc(S(=O)(=O)NCC2CCCCC2=O)cc1 (stereo unspecified)', '> 100 µM'),
  ('CC(C)(C)OC(=O)NCC(O)CNC(=O)OC(C)(C)C', '> 100 µM'),
  ('CS(=O)(=O)Nc1ccc(N2Cc3cnc4ccc5[nH]ccc2c5c34)cc1', '84.5 µM'),
  ('O=C1c2ccccc2C(=O)C1(Cl)C1(S(=O)(=O)O)c2ccccc2-c2ccccc21', '> 100 µM'),
  ('CCc1nc(N)nc(N)c1-c1ccc2nn(-c3ccccc3)[n+]([O-])c2c1', '44.3 µM'),
  ('O=Cc1ccc2c(c1)CC1(C2)Cc2ccc3c(c2C1)CCC3 (stereo unspecified)', '> 69.2 µM');

----------
Test system: HCC-2998 colon
protocol_notes: NCI tumour cell line growth inhibition, 48 h; in the data active = GI50 below about 0.43 µM; inactive = the rest
Outcomes: 1.0 for active, 0.0 for inactive

INSERT INTO measurements (molecule, test_system, label) VALUES
  ('COc1ccc(N(C)c2ncnc3occ(C)c23)cc1', 'HCC-2998 colon', 1.0),
  ('O=S(=O)(Nc1cc(F)cc(Cl)c1)c1ccc(-c2cnc(C3CC3)o2)cc1', 'HCC-2998 colon', 0.0),
  ('COC(=O)c1cc2c(cc1O)[C@@H](NC(C)=O)CCc1cc(OC)c(OC)c(OC)c1-2', 'HCC-2998 colon', 1.0),
  ('CCOc1nc(-c2ccccc2)cc2c(O)c(-c3nnco3)[nH]c(=O)c12', 'HCC-2998 colon', 0.0),
  ('CC(C)(C)C(=O)OCOP(=O)(OCOC(=O)C(C)(C)C)C1CCCN(O)C1=O (centres undefined)', 'HCC-2998 colon', 0.0),
  ('COc1ccc2c(c1)C(C)Cc1c(Cl)ncnc1N2C (centres undefined)', 'HCC-2998 colon', 1.0),
  ('O=C(c1ccccc1)c1cc(Cl)ccc1OCCCCN1CCN(CCCCOc2ccc(Cl)cc2C(=O)c2ccccc2)CC1', 'HCC-2998 colon', 0.0),
  ('CC/C(=C(/c1ccc(OCCN(C)C)cc1)c1ccc(OC(=O)CCCCC(=O)c2c(C)[nH]c(/C=C3\N=C(c4ccc[nH]4)C=C3OC)c2C)cc1)c1ccccc1', 'HCC-2998 colon', 0.0),
  ('Cc1ccc(C(SCC(N)C(=O)O)(c2ccccc2)c2ccc(C)cc2)cc1 (centres undefined)', 'HCC-2998 colon', 1.0);

----------
Tested on: CCRF-CEM leukemia
protocol_notes: NCI tumour cell line growth inhibition, 48 h
Reported values of TGI for individual entries
measurement_label: TGI

INSERT INTO results (compound, test_system, endpoint_value) VALUES
  ('CC/C(=C(/c1ccc(OCCN(C)C)cc1)c1ccc(OC(=O)CCCCC(=O)c2c(C)[nH]c(/C=C3\N=C(c4ccc[nH]4)C=C3OC)c2C)cc1)c1ccccc1', 'CCRF-CEM leukemia', '> 100 µM'),
  ('CCCCc1c(OC)cc(O)c2c1C(=O)c1[nH]c(C(=O)O)c(O)c(=O)c1C2=O', 'CCRF-CEM leukemia', '> 100 µM'),
  ('COc1ccc(CC2c3cc(Oc4cc(CC5c6cc(OC)c(OC)cc6CCN5C)ccc4O)c(OC)cc3CCN2C)cc1 (centres undefined)', 'CCRF-CEM leukemia', '1.57 µM'),
  ('COc1ccc2c(c1)CCC1C2CC[C@@]2(C)C1CC1=CC(COC(C)=O)C3C(=O)c4ccccc4C(=O)C3C12 (some centres undefined)', 'CCRF-CEM leukemia', '> 100 µM'),
  ('Cc1ccc(C(SCC(N)C(=O)O)(c2ccccc2)c2ccc(C)cc2)cc1 (centres undefined)', 'CCRF-CEM leukemia', '> 75.7 µM'),
  ('COc1nc(C(=O)NNC(=O)c2nc(OC)c3ccccc3c2-c2ccccc2)c(-c2ccccc2)c2ccccc12', 'CCRF-CEM leukemia', '> 100 µM'),
  ('O=C(Nc1nc2ncn(CCI)c2c(=O)[nH]1)c1ccccc1', 'CCRF-CEM leukemia', '> 100 µM'),
  ('O=[N+]([O-])c1ccc(/C=N/n2c(CO)nc3ccccc32)o1', 'CCRF-CEM leukemia', '36.8 µM'),
  ('CC(=O)OCc1cc(CCC(=O)NCCNc2c3ccccc3nc3ccccc23)cc(COC(C)=O)c1O[Si](C)(C)C(C)(C)C', 'CCRF-CEM leukemia', '20.5 µM'),
  ('CCC[CH2][Ge]([CH2]CCC)([CH2]CCC)[O]C(=O)CC(=O)c1ccccc1', 'CCRF-CEM leukemia', '10.6 µM'),
  ('O=C(/C=C/c1ccc(O)cc1)OC[C@@H](O)COC1OC(CO)C(O)C(O)C1O (some centres undefined)', 'CCRF-CEM leukemia', '> 100 µM'),
  ('CCOC(=O)C1(Cc2ccc3c(c2)CCC3)Cc2cc3c(cc2C1)CCC3', 'CCRF-CEM leukemia', '35 µM'),
  ('CC1OC(n2cc(F)c(=O)[nH]c2=O)C=CC1O (centres undefined)', 'CCRF-CEM leukemia', '> 77.9 µM'),
  ('COc1ccc(C(C)NNC(=O)c2ccncc2)c(OC)c1 (centres undefined)', 'CCRF-CEM leukemia', '> 100 µM');

----------
System: CCRF-CEM leukemia
protocol_notes: NCI tumour cell line growth inhibition, 48 h
measurement_label: TGI

INSERT INTO results (compound, measurement_label, endpoint_value) VALUES
  ('O=C1NC(=Nc2ccccc2)S/C1=C\c1ccc2ncccc2c1', 'TGI', '> 25 µM'),
  ('COc1cc(Nc2cn[nH]c2-c2ccc(Cl)cc2)cc(OC)c1OC', 'TGI', '> 81.9 µM'),
  ('CC(=O)Nc1cc(C(=O)Nc2cc(C(=O)N3CC(CCl)c4c3cc(N)c3ccccc43)nn2C)nn1C (stereo unspecified)', 'TGI', '0.0491 µM'),
  ('NS(=O)(=O)c1nn2c(Br)c(-c3ccccc3)nc2s1', 'TGI', '11 µM'),
  ('NC(CCCCP(=O)(O)O)C(=O)O (stereo unspecified)', 'TGI', '> 100 µM'),
  ('Cc1ccc(Cl)cc1Nc1nc(C(F)(F)F)ccc1C(=O)N1CCN(c2ccc(F)cc2)CC1', 'TGI', '53.5 µM'),
  ('Cn1cc(C2=C(c3ccc4ccccc4c3)C(=O)NC2=O)c2ccccc21', 'TGI', '> 25 µM'),
  ('NC(Cc1cccc([N+](=O)[O-])c1)C(=O)O (stereo unspecified)', 'TGI', '> 100 µM'),
  ('CN1C(=O)N/C(=C\c2ccc(S(=O)(=O)NN)cc2)C1=O', 'TGI', '> 100 µM'),
  ('C=CCNC1=C2C[C@@H](C)C[C@@H](OC)[C@H](OC(=O)CCCCN)[C@H](C)/C=C(\C)[C@@H](OC(N)=O)[C@H](OC)/C=C\C=C(/C)C(=O)NC(=CC1=O)C2=O', 'TGI', '56.4 µM'),
  ('CC(=O)OC1Oc2ccccc2-c2oc(=O)c(-c3cc(=O)oc4cc(O)ccc34)cc21 (stereo unspecified)', 'TGI', '40.8 µM');
